# Tested on: KATOIII (Gastric Carcinoma)
# Experiment Notes: combination Emax (second highest fraction inhibited in the dose matrix, 72 h); higher = more inhibition; extreme values may be limits of the assay
Assay Metric: combination Emax

>>> value_observed("CN(C)CCCOc1ccc(-c2ccc3ncc4c(c3c2)n(C2CCOCC2)c(=O)n4C)cn1 [AZD0156] + C[C@@H]1COCCN1C2=NC(=NC(=C2)C3(CC3)[S@](=N)(=O)C)C4=C5C=CNC5=NC=C4 [AZD6738] (first compound max 1 µM, 7x7, partner max 10 µM)")
0.519
>>> value_observed("COc1cc2c(cc1OCCCCCOc1cc3c(cc1OC)C(=O)N1C=C(C)C[C@H]1C=N3)N=C[C@@H]1CC(C)=CN1C2=O [SG3199] + O=C(c1cc(Cc2n[nH]c(=O)c3ccccc23)ccc1F)N1CCN(C(=O)C2CC2)CC1 [Olaparib] (first compound max 0.001 µM, 7x7, partner max 10 µM)")
0.0764
>>> value_observed("C[C@@H]1COCCN1c1cc(C2([S@](C)(=N)=O)CC2)nc(-c2ccnc3[nH]ccc23)n1 [AZD6738] + Nc1ccn([C@@H]2O[C@H](CO)[C@@H](O)C2(F)F)c(=O)n1 [Gemcitabine] (first compound max 10 µM, 7x7, partner max 0.3 µM)")
0.656
>>> value_observed("NC1(C(=O)N[C@@H](CCO)c2ccc(Cl)cc2)CCN(c2ncnc3[nH]ccc23)CC1 [Capivasertib] + C[C@@H]1COCCN1C2=NC(=NC(=C2)C3(CC3)[S@](=N)(=O)C)C4=C5C=CNC5=NC=C4 [AZD6738] (first compound max 10 µM, 7x7, partner max 10 µM)")
0.438
>>> value_observed("Cc1cc2ncnn2cc1Nc1ncc2c(n1)n(C1CCOCC1)c(=O)n2C [AZD7648] + C=CCn1c(=O)c2cnc(Nc3ccc(N4CCN(C)CC4)cc3)nc2n1-c1cccc(C(C)(C)O)n1 [AZD1775] (first compound max 10 µM, partner max 1 µM)")
0.391
>>> value_observed("C=CCn1c(=O)c2cnc(Nc3ccc(N4CCN(C)CC4)cc3)nc2n1-c1cccc(C(C)(C)O)n1 [AZD1775] + CCc1c2c(nc3ccc(O)cc13)-c1cc3c(c(=O)n1C2)COC(=O)[C@]3(O)CC [SN-38] (first compound max 1 µM, partner max 0.3 µM)")
0.431
>>> value_observed("CC1(C)CCC(CN2CCN(c3ccc(C(=O)NS(=O)(=O)c4ccc(NCC5CCOCC5)c([N+](=O)[O-])c4)c(Oc4cnc5[nH]ccc5c4)c3)CC2)=C(c2ccc(Cl)cc2)C1 [Venetoclax] + C[C@@H]1COCCN1C2=NC(=NC(=C2)C3(CC3)[S@](=N)(=O)C)C4=C5C=CNC5=NC=C4 [AZD6738] (first compound max 1 µM, 7x7, partner max 10 µM)")
0.462

----------
# combination Emax values compiled below
# Test system: HT-29 (Colorectal Carcinoma)
# Experiment Notes: combination Emax (second highest fraction inhibited in the dose matrix, 72 h); higher = more inhibition; extreme values may be limits of the assay
Assay Metric: combination Emax

>>> value_observed("COc1cc2c(cc1OCCCCCOc1cc3c(cc1OC)C(=O)N1C=C(C)C[C@H]1C=N3)N=C[C@@H]1CC(C)=CN1C2=O [SG3199] + O=C(c1cc(Cc2n[nH]c(=O)c3ccccc23)ccc1F)N1CCN(C(=O)C2CC2)CC1 [Olaparib] (first compound max 0.001 µM, 7x7, partner max 10 µM)")
0.0781
>>> value_observed("Cc1c2c(nn1C)CSCc1cc(n(C)n1)CSc1cc(c3ccccc3c1)OCCCc1c(C(=O)O)n(C)c3c-2c(Cl)ccc13 [AZD5991] + Cc1cc2ncnn2cc1Nc1ncc2c(n1)n(C1CCOCC1)c(=O)n2C [AZD7648] (first compound max 1 µM, 7x7, partner max 10 µM)")
0.223
>>> value_observed("N#Cc1cnc(Nc2cc(NC[C@H]3CNCCO3)c(C(F)(F)F)cn2)cn1 [SRA737] + Nc1ccn([C@@H]2O[C@H](CO)[C@@H](O)C2(F)F)c(=O)n1 [Gemcitabine] (first compound max 10 µM, 7x7, partner max 0.3 µM)")
0.853
>>> value_observed("C=CCn1c(=O)c2cnc(Nc3ccc(N4CCN(C)CC4)cc3)nc2n1-c1cccc(C(C)(C)O)n1 [AZD1775] + O=C(c1cc(Cc2n[nH]c(=O)c3ccccc23)ccc1F)N1CCN(C(=O)C2CC2)CC1 [Olaparib] (first compound max 1 µM, partner max 10 µM)")
0.818
